Test system: Artemia salina
Test: Action against Artemia salina
Assay type: in vivo
Parameters: key: 0: nauplii not affected; 1: slight change; 1-2: nauplii affected; 2: nauplii severely affected; 2-3: almost all nauplii dead; 3: all nauplii dead
Conditions: 0.5 mg/liter, 24 hours
Overview of recorded Action against Artemia salina for various molecules
Write the value as a bare number.

// known answers, use as guide
CCCCCCCCCCCCCC[P+](CCCC)(CCCC)CCCC.CCCCCCCCCCCCCC[P+](CCCC)(CCCC)CCCC.[CH3][Sn-2]([CH3])([Cl])([Cl])([Cl])[Cl]
2
CCCCCCCCCCCCCC[P+](CCCC)(CCCC)CCCC.[CH3][Sn-]([CH3])([Cl])([Cl])[Cl]
2

Now take the following molecule into account.
Noted for CCCCCCCCCCCCCC[P+](CCCC)(CCCC)CCCC.[CH3][Sn-]([Cl])([Cl])([Cl])[Cl] : its Action against Artemia salina reads 3
